Source listed as paper PMC4739419.

Listed here: compounds with reported pKd for HpMutS2 (Helicobacter pylori, UniProt O25338).
Answers are plain numbers, as −log10 of the molar value.

| Compound | System tested | pKd |
| --- | --- | --- |
| Nc1ncnc2c1ncn2[C@@H]1O[C@H](COP(=O)(O)OP(=O)(O)O)[C@@H](O)[C@H]1O [ADP] | HpMutS2 (Helicobacter pylori, UniProt O25338) | 3.83 |

Let us examine a further case.
Give the measured pKd of Nc1ncnc2c1ncn2[C@@H]1O[C@H](COP(=O)(O)OP(=O)(O)OP(=O)(O)O)[C@@H](O)[C@H]1O [ATP] .
3.78

====

Answer each item with its documented Kd.
System tested: HpMutS2-E413A (Helicobacter pylori, UniProt O25338, E413A)
Construct: (A) HpMutS2-E413A (1-762): Mol. wt; (kDa): 87.7; His6 (C); made in house; host or cells: E. coli Rosetta (DE3) pLysS
Sequence (O25338 whole entry E413A): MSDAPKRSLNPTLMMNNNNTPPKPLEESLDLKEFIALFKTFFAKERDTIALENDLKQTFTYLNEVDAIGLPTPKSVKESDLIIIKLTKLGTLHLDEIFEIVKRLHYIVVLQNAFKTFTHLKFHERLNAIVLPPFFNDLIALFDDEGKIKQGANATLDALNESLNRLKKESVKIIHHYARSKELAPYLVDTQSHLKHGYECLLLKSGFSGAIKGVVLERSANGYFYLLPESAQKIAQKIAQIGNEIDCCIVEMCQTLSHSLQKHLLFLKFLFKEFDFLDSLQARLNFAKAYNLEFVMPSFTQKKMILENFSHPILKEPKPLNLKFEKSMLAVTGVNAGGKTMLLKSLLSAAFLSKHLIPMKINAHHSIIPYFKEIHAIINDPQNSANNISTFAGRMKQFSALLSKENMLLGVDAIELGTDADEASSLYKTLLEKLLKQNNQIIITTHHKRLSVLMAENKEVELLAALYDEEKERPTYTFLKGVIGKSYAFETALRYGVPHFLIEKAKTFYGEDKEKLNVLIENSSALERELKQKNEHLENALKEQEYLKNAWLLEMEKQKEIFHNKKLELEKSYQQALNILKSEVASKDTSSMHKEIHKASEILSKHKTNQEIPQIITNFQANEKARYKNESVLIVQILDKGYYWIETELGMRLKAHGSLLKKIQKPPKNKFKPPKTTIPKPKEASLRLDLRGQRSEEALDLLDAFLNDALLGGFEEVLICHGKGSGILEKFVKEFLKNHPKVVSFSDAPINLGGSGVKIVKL
Protocol: Tryptophan fluorescence-quenching nucleotide binding assay
Experimental context: no divalent metal ions, protein 1 μM, 25 °C; read-out: Kd (dissociation constant)
Answers are plain numbers, in µM.

| Mol smiles | Kd, µM |
| --- | --- |
| Nc1ncnc2c1ncn2[C@@H]1O[C@H](COP(=O)(O)OP(=O)(O)OP(=O)(O)O)[C@@H](O)[C@H]1O | 220 |

Here's the next entry for you.
Kd lookup needed for Nc1ncnc2c1ncn2[C@@H]1O[C@H](COP(=O)(O)OP(=O)(O)O)[C@@H](O)[C@H]1O , thanks.
239
